Test: Food effect on administration of sepiapterin: plasma sepiapterin and BH4, fasted vs fed
Format: in vivo
Details: human, plasma; sepiapterin 10 mg/kg oral, fasted, 0.5 h; read-out: Sepiapterin Concentration in Plasma, Minimum
MEASUREMENT TYPE: concentration at 0.5 h (nM)
Report the value in nM with no unit label.

Quick check: concentration at 0.5 h of C[C@H](O)C(=O)C1=Nc2c(nc(N)[nH]c2=O)NC1 [sepiapterin] ? 0

----------
Experiment: Pharmacokinetic analysis of multiple doses of sepiapterin (once daily, 7 days, fed subjects)
Assay type: in vivo
Settings: human, plasma, po, 5 mg/kg, sepiapterin 5 mg/kg once daily, Day 1
MEASUREMENT TYPE: Cmax (ng/mL)
Report the value in ng/mL with no unit label.

Quick check: Cmax of C[C@H](O)C(=O)C1=Nc2c(nc(N)[nH]c2=O)NC1 [sepiapterin] ? 0.6

----------
Test: Pharmacokinetic analysis of multiple doses of sepiapterin (once daily, 7 days, fed subjects)
Assay type: in vivo
Settings: human, plasma, po, 5 mg/kg, sepiapterin 5 mg/kg once daily, Day 7, read-out: AUC0-inf of sepiapterin
MEASUREMENT TYPE: AUC(0-inf) (ng·h/mL)
Report the value in ng·h/mL with no unit label.

Quick check: AUC(0-inf) of C[C@H](O)C(=O)C1=Nc2c(nc(N)[nH]c2=O)NC1 [sepiapterin] ? 0.7

----------
Test: Food effect on administration of sepiapterin: plasma sepiapterin and BH4, fasted vs fed
Assay type: in vivo
Conditions: human, plasma; sepiapterin 10 mg/kg oral, fasted, 0 h (predose); read-out: Sepiapterin Concentration in Plasma, Maximum
MEASUREMENT TYPE: concentration at 0 h (nM)
Report the value in nM with no unit label.

Quick check: concentration at 0 h of C[C@H](O)C(=O)C1=Nc2c(nc(N)[nH]c2=O)NC1 [sepiapterin] ? 0

----------
Experiment: Food effect on administration of sepiapterin: plasma sepiapterin and BH4, fasted vs fed
Format: in vivo
Settings: human, plasma; sepiapterin 10 mg/kg oral, fasted, 12 h; read-out: Sepiapterin Concentration in Plasma, Maximum
Procedure: Method: Subjects received two oral doses of sepiapterin (10 mg/kg) separated by one week in a fasted and fed state. […] Sampling for PK analysis occurred predose on Days 1 and 8 (within 30 minutes before dosing) and 0.5 hr, 1 hr, 2 hr, 4 hr, 8 hr, 12 hr, and 24 hr after the doses on Days 1 and 8. The blood concentrations of sepiapterin and BH4 were analyzed by MNG Labs.
MEASUREMENT TYPE: concentration at 12 h (nM)
Report the value in nM with no unit label.

Quick check: concentration at 12 h of C[C@H](O)C(=O)C1=Nc2c(nc(N)[nH]c2=O)NC1 [sepiapterin] ? 0

----------
Experiment: Pharmacokinetic analysis of multiple doses of sepiapterin (once daily, 7 days, fed subjects)
Assay type: in vivo
Settings: human, plasma, po, 5 mg/kg, sepiapterin 5 mg/kg once daily, Day 7
Description: Methods: Three cohorts of eight fed subjects each were randomized to receive once-daily sepiapterin or placebo for 7 days in a 6:2 ratio. A sentinel dose strategy was also used for administration of the highest sepiapterin dose.
MEASUREMENT TYPE: Tmax (h)
Report the value in h with no unit label.

Quick check: Tmax of C[C@H](O)C(=O)C1=Nc2c(nc(N)[nH]c2=O)NC1 [sepiapterin] ? 3

----------
Experiment: Pharmacokinetic analysis of multiple doses of sepiapterin (once daily, 7 days, fed subjects)
Type: in vivo
Conditions: human, plasma, po, 60 mg/kg, sepiapterin 60 mg/kg once daily, Day 1
MEASUREMENT TYPE: Cmax (ng/mL)
Report the value in ng/mL with no unit label.

Quick check: Cmax of C[C@H](O)C(=O)C1=Nc2c(nc(N)[nH]c2=O)NC1 [sepiapterin] ? 2.7

----------
Experiment: Pharmacokinetic analysis of multiple doses of sepiapterin (once daily, 7 days, fed subjects)
Assay type: in vivo
Settings: human, plasma, po, 20 mg/kg, sepiapterin 20 mg/kg once daily, Day 1
MEASUREMENT TYPE: Tmax (h)
Report the value in h with no unit label.

Quick check: Tmax of C[C@H](O)C(=O)C1=Nc2c(nc(N)[nH]c2=O)NC1 [sepiapterin] ? 2.6

----------
Assay: Pharmacokinetic analysis of multiple doses of sepiapterin (once daily, 7 days, fed subjects)
Assay type: in vivo
Settings: human, plasma, po, 5 mg/kg, sepiapterin 5 mg/kg once daily, Day 7
MEASUREMENT TYPE: Cmax (ng/mL)
Report the value in ng/mL with no unit label.

Quick check: Cmax of C[C@H](O)C(=O)C1=Nc2c(nc(N)[nH]c2=O)NC1 [sepiapterin] ? 0.6

----------
Assay: Pharmacokinetic analysis of multiple doses of sepiapterin (once daily, 7 days, fed subjects)
Format: in vivo
Conditions: human, plasma, po, 5 mg/kg, sepiapterin 5 mg/kg once daily, Day 1
Description: Methods: Three cohorts of eight fed subjects each were randomized to receive once-daily sepiapterin or placebo for 7 days in a 6:2 ratio. A sentinel dose strategy was also used for administration of the highest sepiapterin dose.
MEASUREMENT TYPE: Tmax (h)
Report the value in h with no unit label.

Quick check: Tmax of C[C@H](O)C(=O)C1=Nc2c(nc(N)[nH]c2=O)NC1 [sepiapterin] ? 3

----------
Test: Pharmacokinetic analysis of multiple doses of sepiapterin (once daily, 7 days, fed subjects)
Format: in vivo
Settings: human, plasma, po, 60 mg/kg, sepiapterin 60 mg/kg once daily, Day 7
Source text: Methods: Three cohorts of eight fed subjects each were randomized to receive once-daily sepiapterin or placebo for 7 days in a 6:2 ratio. A sentinel dose strategy was also used for administration of the highest sepiapterin dose.
MEASUREMENT TYPE: Tmax (h)
Report the value in h with no unit label.

Quick check: Tmax of C[C@H](O)C(=O)C1=Nc2c(nc(N)[nH]c2=O)NC1 [sepiapterin] ? 3

----------
Test: Food effect on administration of sepiapterin: plasma sepiapterin and BH4, fasted vs fed
Format: in vivo
Conditions: human, plasma; sepiapterin 10 mg/kg oral, fed, 1 h; read-out: Sepiapterin Concentration in Plasma, Minimum
MEASUREMENT TYPE: concentration at 1 h
Your answer should be a number followed by the unit of measure.

Quick check: concentration at 1 h of C[C@H](O)C(=O)C1=Nc2c(nc(N)[nH]c2=O)NC1 [sepiapterin] ? 0 nM

----------
Test: Pharmacokinetic analysis of multiple doses of sepiapterin (once daily, 7 days, fed subjects)
Format: in vivo
Conditions: human, plasma, po, 20 mg/kg, sepiapterin 20 mg/kg once daily, Day 7, read-out: AUC0-inf of sepiapterin
MEASUREMENT TYPE: AUC(0-inf) (ng·h/mL)
Report the value in ng·h/mL with no unit label.

Quick check: AUC(0-inf) of C[C@H](O)C(=O)C1=Nc2c(nc(N)[nH]c2=O)NC1 [sepiapterin] ? 4.3

----------
Assay: Pharmacokinetic analysis of multiple doses of sepiapterin (once daily, 7 days, fed subjects)
Format: in vivo
Details: human, plasma, po, 5 mg/kg, sepiapterin 5 mg/kg once daily, Day 1, read-out: AUC0-inf of sepiapterin
MEASUREMENT TYPE: AUC(0-inf) (ng·h/mL)
Report the value in ng·h/mL with no unit label.

Quick check: AUC(0-inf) of C[C@H](O)C(=O)C1=Nc2c(nc(N)[nH]c2=O)NC1 [sepiapterin] ? 1

Cited source: patent US20230110351A1
